# reported IC50; entries follow
# Protocol Description: Inhibition of Mycobacterium tuberculosis N-terminal His6-tagged MetAP1C using methionylprolyl-p-nitroanilide as substrate incubated for 20 mins prior to substrate addition measured for 20 mins by spectrophotometry in presence of Mn2+

{"Compound": "COc1ccc2c(c1)CCc1sc(/N=C/c3ccccc3O)nc1-2", "IC50": "> 50 µM"}
{"Compound": "COc1ccc2c(c1)Cc1sc(N/C=N\\O)nc1-2", "IC50": "> 50 µM"}
{"Compound": "CN(C)/C=N/c1nc2c(s1)CCc1ccccc1-2", "IC50": "> 50 µM"}
{"Compound": "COc1ccc(-c2csc(N/C=N\\O)n2)cc1OC", "IC50": "7 µM"}
{"Compound": "COc1ccc2c(c1)CCc1sc(N)nc1-2", "IC50": "> 50 µM"}
{"Compound": "CCCCCCCCC(=O)Nc1nc2c(s1)CCc1ccccc1-2", "IC50": "> 50 µM"}
{"Compound": "Nc1nc2c(s1)CCc1ccccc1-2", "IC50": "> 50 µM"}
{"Compound": "COc1ccc2c(c1)-c1nc(NC=NO)sc1CC2", "IC50": "2.33 µM"}
{"Compound": "O/N=C\\Nc1nc2c(s1)CCc1ccccc1-2", "IC50": "> 50 µM"}
{"Compound": "COc1ccc2c(c1)CCc1sc(/N=C/c3ccco3)nc1-2", "IC50": "> 50 µM"}
{"Compound": "COc1cccc2c1CCc1sc(N/C=N\\O)nc1-2", "IC50": "10.3 µM"}
{"Compound": "COc1ccc2c(c1)CCc1sc(N/C=N\\O)nc1-2", "IC50": "> 50 µM"}
{"Compound": "COc1ccc2c(c1)CCc1sc(NC(=O)[C@H](C)O)nc1-2", "IC50": "> 50 µM"}
{"Compound": "O/N=C\\Nc1nc2c(s1)CCc1cc3c(cc1-2)OCO3", "IC50": "12.5 µM"}
{"Compound": "COc1ccc2c(c1)CCc1sc(NC(C)=O)nc1-2", "IC50": "> 50 µM"}
{"Compound": "O/N=C\\Nc1nc2c(s1)CCOc1cc3c(cc1-2)OCO3", "IC50": "3.13 µM"}
{"Compound": "COc1ccc2c(c1)OC(c1ccccc1)c1sc(N/C=N\\O)nc1-2 (configuration not stated)", "IC50": "> 50 µM"}
{"Compound": "COc1cc2c(cc1OC)-c1nc(N/C=N\\O)sc1CC2", "IC50": "> 50 µM"}
{"Compound": "O/N=C\\Nc1nc2c(s1)COc1cc3c(cc1-2)OCO3", "IC50": "4.4 µM"}
{"Compound": "CCCCCCCCC(=O)Nc1nc2c(s1)CCc1cc(OC)ccc1-2", "IC50": "> 50 µM"}
{"Compound": "COc1ccc2c(c1)OCc1sc(N/C=N\\O)nc1-2", "IC50": "> 50 µM"}
{"Compound": "O/N=C\\Nc1nc2c(s1)CCCc1cc3c(cc1-2)OCO3", "IC50": "14.5 µM"}
